The values you see were collected from paper PMC7600788.

# System: S. aureus USA300 LAC
# Type: cell-based, Staphylococcus aureus
# reported conditions: USA300
No end group written: not given here.
observed property: MIC, +10% Human Serum

>  <biosequence>
WWWWLRKI [WW298]

>  <result>
12.5 to 25 µM

$$$$
>  <biosequence>
WLRKIWWW [WW293]

>  <result>
>25 µM

$$$$
>  <biosequence>
WWLRKIWW [WW292]

>  <result>
>25 µM

$$$$

---

# Test system: chicken red blood cells
# measurement description: Hemolytic assay
# Assay type: cell-based
No end group written: not given here.
observed property: Chicken RBC, concentration that caused 50% red blood cell lysis (HC50)

>  <biosequence>
WWLRKIWW [WW292]

>  <experimental target>
chicken red blood cells

>  <result>
>100 µM

$$$$
>  <biosequence>
WLRKIWWW [WW293]

>  <experimental target>
chicken red blood cells

>  <result>
>100 µM

$$$$
>  <biosequence>
LRKIWWWW [WW294]

>  <experimental target>
chicken red blood cells

>  <result>
>100 µM

$$$$
